species on record: Rattus norvegicus; experiment: DrugMatrix - Regimen: Daily Repeat; assay type: toxicity, organism-based, Sprague-Dawley; parameters: regimen Daily Repeat, gender Male, age 6-8 weeks; settings: in vivo, po, 0 mg/kg, 72 h, tissue Plasma, route oral GAVAGE, dose level Control, time 3 day, vehicle .5 % CMC
METRIC NAME: LACTATE DEHYDROGENASE (u/L)

• C=C1CC[C@H](O)C/C1=C/C=C1\CCC[C@]2(C)[C@@H]([C@H](C)/C=C/[C@H](C)C(C)C)CC[C@@H]12 = 138.5
• Brc1ccccc1 = 262.33
• Cc1c(-c2ccccc2)oc2c(C(=O)OCCN3CCCCC3)cccc2c1=O [FLAVOXATE] = 236.5
• CCc1ccc(C(=O)C(C)CN2CCCCC2)cc1 (centres undefined) = 294.83
• CC(C)[C@H](N)C(=O)OCCOCn1cnc2c(=O)[nH]c(N)nc21 = 982.5
• COc1c(C)c2c(c(O)c1C/C=C(\C)CCC(=O)OCCN1CCOCC1)C(=O)OC2 [MYCOPHENOLATE MOFETIL] = 386
• COC(=O)c1ccc(O)cc1 = 155.5
• CC(/C=C1\SC(=S)N(CC(=O)O)C1=O)=C\c1ccccc1 = 386
• CC1(C)[C@H]2CC[C@]1(C)C(=O)C2 [(-)-CAMPHOR] = 241.67

* * *

organism: Rattus norvegicus; test: DrugMatrix - Regimen: Daily Repeat; format: toxicity, organism-based, Sprague-Dawley; design: regimen Daily Repeat, gender Male, age 6-8 weeks; conditions: in vivo, po, 0 mg/kg, 120 h, tissue Plasma, route oral GAVAGE, dose level Control, time 5 day, vehicle 100 % WATER
Quick reference: ASPARTATE AMINOTRANSFERASE of the listed items.
METRIC NAME: ASPARTATE AMINOTRANSFERASE (u/L)

• NNC(=O)c1ccncc1 [ISONIAZID] = 88
• Clc1ccc(C(c2ccccc2Cl)C(Cl)Cl)cc1 (stereo not given) [MITOTANE] = 87.67
• COc1cc2c(N3CCN(C(=O)Nc4ccc(OC(C)C)cc4)CC3)ncnc2cc1OCCCN1CCCCC1 [TANDUTINIB] = 83
• NC(=O)c1ncn([C@@H]2O[C@H](CO)[C@@H](O)[C@H]2O)n1 [RIBAVIRIN] = 82.67
• CC(C)(S)[C@@H](N)C(=O)O [PENICILLAMINE] = 81
• Fc1ccc([C@@H]2CCNC[C@H]2COc2ccc3c(c2)OCO3)cc1 [PAROXETINE] = 80.83
• O=C1NC(=O)C(c2ccccc2)(c2ccccc2)N1 [PHENYTOIN] = 86
• COc1ccc(C(CN(C)C)C2(O)CCCCC2)cc1 (stereo not given) [VENLAFAXINE] = 91.33
• COc1cccc(C2(O)CCCCC2CN(C)C)c1 (stereo not given) [TRAMADOL] = 80.83
• CN1CCN(C(=O)OC2c3nccnc3C(=O)N2c2ccc(Cl)cn2)CC1 (stereo not given) [ZOPICLONE] = 81.67

* * *

species on record: Rattus norvegicus; experiment: DrugMatrix - Regimen: Daily Repeat; format: toxicity, organism-based, Sprague-Dawley; design: regimen Daily Repeat, gender Male, age 6-8 weeks; settings: in vivo, iv, 0 mg/kg, 120 h, tissue Plasma, dose level Control, time 5 day, vehicle 100 % SALINE
Recorded CHLORIDE, one value per entry.
METRIC NAME: CHLORIDE (MEQ/L)

* CN(N=O)C(=O)N[C@@H](C=O)[C@@H](O)[C@H](O)[C@H](O)CO | 102.67
* NCC[C@H](O)C(=O)N[C@@H]1C[C@H](N)[C@@H](O[C@H]2O[C@H](CN)[C@@H](O)[C@H](O)[C@H]2O)[C@H](O)[C@H]1O[C@H]1O[C@H](CO)[C@@H](O)[C@H](N)[C@H]1O | 99.6
* CC1(C)S[C@@H]2[C@H](NC(=O)[C@H](NC(=O)N3CCNC3=O)c3ccccc3)C(=O)N2[C@H]1C(=O)O | 99.5
* CC[C@@]1(O)C(=O)OCc2c1cc1n(c2=O)Cc2cc3ccccc3nc2-1 | 100.5

* * *

species: Rattus norvegicus; assay: DrugMatrix - Regimen: Daily Repeat; format: toxicity, organism-based, Sprague-Dawley; set-up: regimen Daily Repeat, gender Male, age 6-8 weeks; details: in vivo, iv, 0 mg/kg, 72 h, tissue Plasma, dose level Control, time 3 day, vehicle 100 % SALINE
Some molecules, each annotated with its measured ASPARTATE AMINOTRANSFERASE.
METRIC NAME: ASPARTATE AMINOTRANSFERASE (u/L)

* CC1(C)S[C@@H]2[C@H](NC(=O)[C@H](NC(=O)N3CCNC3=O)c3ccccc3)C(=O)N2[C@H]1C(=O)O [AZLOCILLIN] | 77.5
* CC[C@@]1(O)C(=O)OCc2c1cc1n(c2=O)Cc2cc3ccccc3nc2-1 [CAMPTOTHECIN] | 101.5
* NCC[C@H](O)C(=O)N[C@@H]1C[C@H](N)[C@@H](O[C@H]2O[C@H](CN)[C@@H](O)[C@H](O)[C@H]2O)[C@H](O)[C@H]1O[C@H]1O[C@H](CO)[C@@H](O)[C@H](N)[C@H]1O [AMIKACIN] | 82.33
* CN(N=O)C(=O)N[C@@H](C=O)[C@@H](O)[C@H](O)[C@H](O)CO [STREPTOZOCIN] | 88.83

* * *

species on record: Rattus norvegicus; assay: DrugMatrix - Regimen: Daily Repeat; assay type: toxicity, organism-based, Sprague-Dawley; set-up: regimen Daily Repeat, gender Male, age 6-8 weeks; conditions: in vivo, ip, 0.5 mg/kg, […], tissue Blood, route intraperitoneal, dose level High, time 14 day, vehicle 100 % SALINE
METRIC NAME: ABSOLUTE BASOPHIL (cells/µL)

- CISPLATIN: 36

* * *

organism: Rattus norvegicus; test: DrugMatrix - Regimen: Daily Repeat; assay type: toxicity, organism-based, Sprague-Dawley; set-up: regimen Daily Repeat, gender Male, age 6-8 weeks; settings: in vivo, po, 2000 mg/kg, 72 h, tissue Plasma, route oral GAVAGE, dose level High, time 3 day, vehicle .5 % CMC
METRIC NAME: CREATININE (mg/dL)

• CC(C)[C@H](N)C(=O)OCCOCn1cnc2c(=O)[nH]c(N)nc21 = 1.22
• CC(=O)O[C@]1(C(C)=O)CC[C@H]2[C@@H]3C=C(Cl)C4=CC(=O)CC[C@]4(C)[C@H]3CC[C@@]21C [CHLORMADINONE ACETATE] = 0.18
• NCC(=O)O = 0.37
• NCCCC[C@H](N[C@@H](CCc1ccccc1)C(=O)O)C(=O)N1CCC[C@H]1C(=O)O [LISINOPRIL ANHYDROUS] = 0.29

* * *

Quick reference for BASOPHIL among some compounds
species: Rattus norvegicus; test: DrugMatrix - Regimen: Daily Repeat; assay type: toxicity, organism-based, Sprague-Dawley; set-up: regimen Daily Repeat, gender Male, age 6-8 weeks; details: in vivo, po, 0 mg/kg, 72 h, tissue Blood, route oral GAVAGE, dose level Control, time 3 day, vehicle .5 % CMC
METRIC NAME: BASOPHIL

• CCOC(=O)OC(C)OC1=C(C(=O)Nc2ccccn2)N(C)S(=O)(=O)c2ccccc21 (centres undefined) = 0%
• CCc1cccc2c3c([nH]c12)C(CC)(CC(=O)O)OCC3 (centres undefined) = 1.52%
• CN1CCC[C@@H]1CCO[C@](C)(c1ccccc1)c1ccc(Cl)cc1 = 0%
• COC(=O)c1ccc(O)cc1 = 0%
• Brc1ccccc1 = 0%
• CCC[C@@H]1C[C@@H](C(=O)N[C@@H]([C@H]2O[C@H](SC)[C@H](O)[C@@H](O)[C@H]2O)[C@@H](C)O)N(C)C1 = 0%
• C[C@]12CCC(=O)C=C1CC[C@@H]1[C@@H]2C(=O)C[C@@]2(C)[C@H]1CC[C@]2(O)C(=O)CO = 1.52%
• COc1c(C)c2c(c(O)c1C/C=C(\C)CCC(=O)OCCN1CCOCC1)C(=O)OC2 [MYCOPHENOLATE MOFETIL] = 0%
• CN1C(C(=O)Nc2ccccn2)=C(O)c2ccccc2S1(=O)=O = 0%
• CC(C)[C@H](N)C(=O)OCCOCn1cnc2c(=O)[nH]c(N)nc21 = 0%
• CCc1ccc(C(=O)C(C)CN2CCCCC2)cc1 (centres undefined) = 0%
• NCC(=O)O = 0%
• CC(/C=C1\SC(=S)N(CC(=O)O)C1=O)=C\c1ccccc1 = 0%
• O=C1CCc2cc(OCCCCc3nnnn3C3CCCCC3)ccc2N1 = 0.68%
• CC1(C)[C@H]2CC[C@]1(C)C(=O)C2 [(-)-CAMPHOR] = 0%
• Cc1c(-c2ccccc2)oc2c(C(=O)OCCN3CCCCC3)cccc2c1=O [FLAVOXATE] = 0%
• C=C1CC[C@H](O)C/C1=C/C=C1\CCC[C@]2(C)[C@@H]([C@H](C)/C=C/[C@H](C)C(C)C)CC[C@@H]12 = 0%
• O=c1[nH]cc(F)c(=O)[nH]1 = 0%
• CC[C@H]1OC(=O)[C@H](C)[C@@H](O[C@H]2C[C@@](C)(OC)[C@@H](O)[C@H](C)O2)[C@H](C)[C@@H](O[C@@H]2O[C@H](C)C[C@H](N(C)C)[C@H]2O)[C@](C)(O)C[C@@H](C)/C(=N\OCOCCOC)[C@H](C)[C@@H](O)[C@]1(C)O = 1.52%

Data origin: ChEMBL document CHEMBL3885881
